// provenance: patent US7074789B2

target: IGFR-1 (Homo sapiens); construct: Kinases are expressed as either kinase domains or full length constructs; made in house; assay: Kinase inhibition assay (33P transfer), IGFR-1; assay type: biochemical; conditions: Table 2, class symbols A-E
Sequence (P08069 31-1367): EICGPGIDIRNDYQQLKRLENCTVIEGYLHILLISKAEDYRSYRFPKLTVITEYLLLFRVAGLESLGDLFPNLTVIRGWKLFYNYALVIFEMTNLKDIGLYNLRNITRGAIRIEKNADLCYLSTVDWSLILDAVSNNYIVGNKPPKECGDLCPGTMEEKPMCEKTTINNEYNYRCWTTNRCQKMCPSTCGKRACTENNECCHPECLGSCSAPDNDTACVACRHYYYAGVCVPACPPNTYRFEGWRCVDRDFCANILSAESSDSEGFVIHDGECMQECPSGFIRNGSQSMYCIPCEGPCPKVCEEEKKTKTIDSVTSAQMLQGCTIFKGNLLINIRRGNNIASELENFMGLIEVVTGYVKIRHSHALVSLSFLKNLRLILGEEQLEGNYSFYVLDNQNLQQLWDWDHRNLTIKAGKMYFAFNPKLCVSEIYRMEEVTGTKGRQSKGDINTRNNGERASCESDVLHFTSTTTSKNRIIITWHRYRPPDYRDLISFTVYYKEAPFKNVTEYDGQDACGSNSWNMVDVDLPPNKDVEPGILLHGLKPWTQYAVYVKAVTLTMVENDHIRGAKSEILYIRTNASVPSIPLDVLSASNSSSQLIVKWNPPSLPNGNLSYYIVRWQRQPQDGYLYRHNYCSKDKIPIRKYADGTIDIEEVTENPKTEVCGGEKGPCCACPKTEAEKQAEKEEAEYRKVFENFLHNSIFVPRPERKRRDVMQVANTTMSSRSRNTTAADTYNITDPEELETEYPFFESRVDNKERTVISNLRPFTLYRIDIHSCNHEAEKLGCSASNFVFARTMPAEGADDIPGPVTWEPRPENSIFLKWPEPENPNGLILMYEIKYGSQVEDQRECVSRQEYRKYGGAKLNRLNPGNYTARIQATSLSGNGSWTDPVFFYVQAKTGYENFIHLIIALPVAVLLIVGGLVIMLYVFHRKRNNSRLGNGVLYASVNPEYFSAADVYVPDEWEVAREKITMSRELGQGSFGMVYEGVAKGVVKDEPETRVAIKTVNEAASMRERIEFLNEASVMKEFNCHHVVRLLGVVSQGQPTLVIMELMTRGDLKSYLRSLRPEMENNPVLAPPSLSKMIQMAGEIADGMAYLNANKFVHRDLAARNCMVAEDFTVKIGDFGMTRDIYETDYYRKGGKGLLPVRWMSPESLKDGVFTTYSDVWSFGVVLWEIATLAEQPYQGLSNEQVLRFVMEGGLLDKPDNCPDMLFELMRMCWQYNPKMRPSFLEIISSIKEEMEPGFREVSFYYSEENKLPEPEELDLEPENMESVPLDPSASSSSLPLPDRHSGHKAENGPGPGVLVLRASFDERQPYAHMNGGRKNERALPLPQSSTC
pIC50: −log10 of the molar value.
reported-property: pIC50

# input Dear colleague, please send me the reported pIC50 for COc1ccc(Nc2ncnc(N(C)[C@H](C)c3ccccc3)n2)cc1OC [Compound 803] when you can.
# output < 4.91

# input Dear colleague, please send me the reported pIC50 for COc1cc(Nc2ncnc(Nc3cc(Cl)c(NC(=O)c4ccccc4)cc3C)n2)cc(OC)c1OC [Compound 633] when you can.
# output < 5.06

# input Dear colleague, please send me the reported pIC50 for OCc1cccc(Nc2ncnc(-c3cccnc3NCc3ccccc3)n2)c1 [Compound 1103] when you can.
# output < 4.93

# input Dear colleague, please send me the reported pIC50 for COc1cc(Nc2ncnc(-c3cccnc3Nc3cc(Cl)cc(Cl)c3)n2)cc(OC)c1OC [Compound 837] when you can.
# output < 5.05

# input Dear colleague, please send me the reported pIC50 for c1ccc(-c2cc(Nc3ncnc(Nc4ccc5[nH]ncc5c4)n3)[nH]n2)cc1 [Compound 1013] when you can.
# output > 5.97

# input Dear colleague, please send me the reported pIC50 for COc1ccc(Nc2ncnc(N(C)c3ccc(Cl)cc3)n2)cc1OC [Compound 795] when you can.
# output 4.92 to 5.03

# input Dear colleague, please send me the reported pIC50 for c1ccc(Nc2ncccc2-c2ncnc(Nc3ccc(N4CCOCC4)cc3)n2)cc1 [Compound 1113] when you can.
# output < 4.98

# input Dear colleague, please send me the reported pIC50 for c1ccc(Cn2ncc3cc(Nc4ncnc(Nc5cccc(Cn6ccnn6)c5)n4)ccc32)cc1 [Compound 676] when you can.
# output 5.30 to 6.07

# input Dear colleague, please send me the reported pIC50 for COC(=O)c1ccc(-c2cc(Nc3ncnc(NCCc4ccc(OC)cc4)n3)[nH]n2)cc1 [Compound 817] when you can.
# output < 5.00

# input Dear colleague, please send me the reported pIC50 for COC(=O)c1ccc(-c2cc(Nc3ncnc(NCCN4CCOCC4)n3)[nH]n2)cc1 [Compound 808] when you can.
# output < 4.97

# input Dear colleague, please send me the reported pIC50 for COc1cc(Nc2ncnc(-c3cccnc3NC(C)C)n2)ccc1NC(=O)CCCN1CCNCC1 [Compound 1096] when you can.
# output < 5.05

# input Dear colleague, please send me the reported pIC50 for CNS(=O)(=O)Cc1ccc(Nc2ncnc(Nc3cc(-c4ccco4)[nH]n3)n2)cc1 [Compound 888] when you can.
# output > 6.03

# input Dear colleague, please send me the reported pIC50 for COc1cc(Nc2ncnc(N(CCO)c3ccccc3)n2)cc(OC)c1OC [Compound 637] when you can.
# output < 4.95

# input Dear colleague, please send me the reported pIC50 for CN(c1cccc(Cl)c1)c1ncnc(Nc2ccc(OCCO)cc2)n1 [Compound 641] when you can.
# output 5.19 to 5.97

# input Dear colleague, please send me the reported pIC50 for c1ccc(CNc2ncnc(Nc3cc(-c4ccco4)n[nH]3)n2)nc1 [Compound 995] when you can.
# output 4.98 to 5.14

# input Dear colleague, please send me the reported pIC50 for COc1ccc(CCNc2ncnc(Nc3cc(-c4ccco4)[nH]n3)n2)cc1OC [Compound 823] when you can.
# output 5.07 to 5.23

# input Dear colleague, please send me the reported pIC50 for COc1ccc(Nc2ncnc(Nc3ccc(N4CCCCC4)cc3)n2)cc1OC [Compound 899] when you can.
# output 5.06 to 5.23

# input Dear colleague, please send me the reported pIC50 for COc1ccc(Nc2ncnc(N(C)C3CCN(Cc4ccccc4)C3)n2)cc1OC (stereo not shown) [Compound 802] when you can.
# output < 4.97

# input Dear colleague, please send me the reported pIC50 for CC(C)Nc1ncccc1-c1ncnc(Nc2ccc3[nH]ncc3c2)n1 [Compound 1116] when you can.
# output 5.16 to 5.94

# input Dear colleague, please send me the reported pIC50 for CCOc1ccc(Nc2ncnc(Nc3cc(-c4ccc(C(=O)OC)cc4)n[nH]3)n2)cc1 [Compound 879] when you can.
# output 5.09 to 5.25

# input Dear colleague, please send me the reported pIC50 for COc1ccc(Nc2ncnc(Nc3ccc4c(cnn4Cc4ccccc4)c3)n2)cc1 [Compound 905] when you can.
# output < 4.97

# input Dear colleague, please send me the reported pIC50 for COc1ccc(Nc2ncnc(NCCc3ccc(Cl)c(Cl)c3)n2)cc1OC [Compound 859] when you can.
# output 5.08 to 5.24

# input Dear colleague, please send me the reported pIC50 for COc1cc(CNc2ncnc(Nc3cc(-c4ccco4)n[nH]3)n2)cc(OC)c1OC [Compound 997] when you can.
# output < 4.97

# input Dear colleague, please send me the reported pIC50 for CC(C)Nc1ncccc1-c1ncnc(Nc2cccc(CO)c2)n1 [Compound 1114] when you can.
# output < 4.87

# input Dear colleague, please send me the reported pIC50 for CCOc1ccc(Nc2ncnc(N(C)c3cccc(Cl)c3)n2)cc1OCC [Compound 640] when you can.
# output < 4.95

# input Dear colleague, please send me the reported pIC50 for COc1cc(C)c(Nc2ncnc(Nc3cc(-c4ccc(C)cc4)n[nH]3)n2)cc1OC [Compound 1127] when you can.
# output > 6.02

# input Dear colleague, please send me the reported pIC50 for Fc1ccc(CNc2ncccc2-c2ncnc(Nc3cccc(Cn4ccnn4)c3)n2)cc1 [Compound 1102] when you can.
# output < 5.00

# input Dear colleague, please send me the reported pIC50 for COC(=O)c1cccc(Nc2ncnc(-n3c(NCc4ccccc4)nc4ccccc43)n2)c1 [Compound 1067] when you can.
# output < 5.00

# input Dear colleague, please send me the reported pIC50 for COc1ccc(Nc2ncnc(NCc3cccc(Cl)c3)n2)cc1OC [Compound 792] when you can.
# output < 4.92

# input Dear colleague, please send me the reported pIC50 for Cc1nccc(-c2cccc(Nc3ncnc(Nc4ccc5c(cnn5Cc5ccccc5)c4)n3)c2)n1 [Compound 901] when you can.
# output < 5.03

# input Dear colleague, please send me the reported pIC50 for C#Cc1cccc(Nc2ncnc(Nc3cc(-c4ccccc4)n[nH]3)n2)c1 [Compound 1008] when you can.
# output > 5.95

# input Dear colleague, please send me the reported pIC50 for COc1ccc(Nc2ncnc(N(C)C3CCCCC3)n2)cc1OC [Compound 796] when you can.
# output < 4.88

# input Dear colleague, please send me the reported pIC50 for COC(=O)c1cccc(Nc2ncnc(-n3c(Cl)nc4ccccc43)n2)c1 [Compound 1066] when you can.
# output < 4.93

# input Dear colleague, please send me the reported pIC50 for COc1cc(Nc2ncnc(-c3cccnc3Nc3cccc(C(F)(F)F)c3)n2)cc(OC)c1OC [Compound 836] when you can.
# output < 5.04
